TGT: His6 tagged human recombinant FABP4 (Homo sapiens)
Construct: purchased Cayman Chemicals 10009549
ASSAY_NAME: FABP4 TR-FRET assay: displacement of fluorescent fatty acid BODIPY FL C12
EXPERIMENTAL_CONDITIONS: inhibition of BODIPY FL C12 binding to His6-FABP4; 1.2 μL of 1.085 mM compound in DMSO per well; triplicates, mean percent inhibition
Property: inhibition at 1085 µM (stock); scope: individual molecules
Please give a number only; it is taken to be in %.

Reference set, count: 3
[[record]]
molecule = "CCCCCCc1ccc2c(-c3ccccc3)cc(N(C)CC(=O)O)nc2c1"
value_reported = 25.3

[[record]]
molecule = "CCCCCCc1ccc2nc(N(C)CC(=O)O)cc(-c3ccccc3)c2c1"
value_reported = 88.2

[[record]]
molecule = "CCCCc1ccc2nc(OCC(=O)O)cc(-c3cccc(C#N)c3)c2c1"
value_reported = 36.2


Q) What does the record list as inhibition at 1085 µM (stock) for CCCCCCc1ccc2nc(N(C)CC(C)C(=O)O)cc(-c3cccnc3)c2c1 (centres unmarked) ?
A) 54.7

###

TGT: His6 tagged human recombinant FABP4 (Homo sapiens, UniProt P15090)
Construct: purchased Cayman Chemicals 10009549
Sequence (P15090 whole entry): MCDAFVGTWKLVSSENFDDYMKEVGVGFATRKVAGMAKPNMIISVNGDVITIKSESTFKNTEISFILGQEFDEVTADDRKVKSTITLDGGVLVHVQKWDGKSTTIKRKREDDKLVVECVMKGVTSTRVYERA
ASSAY_NAME: FABP4 TR-FRET assay: displacement of fluorescent fatty acid BODIPY FL C12
EXPERIMENTAL_CONDITIONS: inhibition of BODIPY FL C12 binding to His6-FABP4; 1.2 μL of 1.085 mM compound in DMSO per well; triplicates, mean percent inhibition
Property: inhibition at 1085 µM (stock); scope: individual compounds
Note: a bare number is incomplete; add the unit.

Reference set, count: 4
[[record]]
compound = "CN(CC(=O)O)c1cc(-c2ccncc2)c2cc(CCc3cccnc3)ccc2n1"
tgt = "His6 tagged human recombinant FABP4 (Homo sapiens, UniProt P15090)"
test_readout = "inhibition at 1085 µM (stock)"
value_reported = "24.6%"

[[record]]
compound = "CCCCc1ccc2nc(OCC(=O)O)cc(-c3cccc(C(N)=O)c3)c2c1"
tgt = "His6 tagged human recombinant FABP4 (Homo sapiens, UniProt P15090)"
test_readout = "inhibition at 1085 µM (stock)"
value_reported = "54.5%"

[[record]]
compound = "CCCCCCCCc1ccc2nc(N(C)CC(=O)O)cc(-c3ccc(F)cc3)c2c1"
tgt = "His6 tagged human recombinant FABP4 (Homo sapiens, UniProt P15090)"
test_readout = "inhibition at 1085 µM (stock)"
value_reported = "53.8%"

[[record]]
compound = "CCCCCCc1ccc2nc(N3CCCC3C(=O)O)cc(-c3ccccc3)c2c1 (centres unmarked)"
tgt = "His6 tagged human recombinant FABP4 (Homo sapiens, UniProt P15090)"
test_readout = "inhibition at 1085 µM (stock)"
value_reported = "67.5%"


Q) What does the record list as inhibition at 1085 µM (stock) for `CN(CC(=O)O)c1cc(-c2ccccc2)c2cc(CCN3CCc4ccccc43)ccc2n1` ?
A) 76.3%

###

TGT: His6 tagged human recombinant FABP4 (Homo sapiens)
Construct: purchased Cayman Chemicals 10009549
ASSAY_NAME: FABP4 TR-FRET assay: displacement of fluorescent fatty acid BODIPY FL C12
EXPERIMENTAL_CONDITIONS: inhibition of BODIPY FL C12 binding to His6-FABP4; 1.2 μL of 1.085 mM compound in DMSO per well; triplicates, mean percent inhibition
Property: inhibition at 1085 µM (stock); scope: individual molecules

Reference set, count: 4
[[record]]
molecule = "CN(CC(=O)O)c1cc(-c2ccccc2)c2cc(CCc3ccnc4[nH]ccc34)ccc2n1"
value_reported = "29.8%"

[[record]]
molecule = "CCCCCCCCc1ccc2nc(N(CC)CC(=O)O)cc(-c3ccc(F)cc3)c2c1"
value_reported = "65.8%"

[[record]]
molecule = "CCCCc1ccc2nc(N(C)CC(=O)O)cc(-c3cccc(C(N)=O)c3)c2c1"
value_reported = "26.1%"

[[record]]
molecule = "CN(CC(=O)NCC(=O)O)c1cc(-c2ccccc2)c2cc(Cl)ccc2n1"
value_reported = "103%"


Q) What does the record list as inhibition at 1085 µM (stock) for CC(Oc1cc(-c2ccccc2)c2cc(CCc3ccccc3)ccc2n1)C(=O)O (stereo not drawn) ?
A) 34.1%

Q) What does the record list as inhibition at 1085 µM (stock) for `CCCCCCc1ccc2nc(N(C)Cc3nn[nH]n3)cc(-c3ccccc3)c2c1` ?
A) 37.8%

Q) What does the record list as inhibition at 1085 µM (stock) for CCCCCCc1ccc2nc(N(C)CC(C)C(=O)O)cc(-c3ccccc3)c2c1 (stereo not drawn) ?
A) 89.7%

Q) What does the record list as inhibition at 1085 µM (stock) for `CCCCCCc1ccc2nc(N(C)CC(=O)O)cc(-c3ccncc3)c2c1` ?
A) 51.4%

Q) What does the record list as inhibition at 1085 µM (stock) for `CCCCCCCCc1ccc2nc(N(C)CC(=O)O)cc(Oc3cccnc3)c2c1` ?
A) 83.6%
